Tested on: P388 mouse leukemia cells
settings: 92 h
Where a SMILES comes first, the peptide text is derived from it. [ ]: non-standard residue; d: D form. The star is where a group is joined. NHCH2CH2OH = OCCN*; For = O=C*
List of cell viability/% values.

molecule	cell viability/% [%]
CC(C)C[C@@H](NC(=O)[C@H](Cc1c[nH]c2ccccc12)NC(=O)[C@@H](CC(C)C)NC(=O)[C@@H](NC(=O)[C@H](NC(=O)[C@H](C)NC(=O)[C@H](NC(=O)[C@H](C)NC(=O)CNC(=O)[C@@H](NC=O)C(C)C)[C@H](C)O)C(C)C)C(C)C)C(=O)N[C@@H](Cc1c[nH]c2ccccc12)C(=O)N[C@@H](C(=O)N[C@@H](Cc1c[nH]c2ccccc12)C(=O)N[C@@H](C(=O)N[C@@H](Cc1c[nH]c2ccccc12)C(=O)NCCO)C(C)C)C(C)C [compound 11772] (For-VGA[dT]A[dV]V[dL]W[dL]W[dV]W[dV]W-NHCH2CH2OH)	100.0
CC(C)C[C@@H](NC(=O)[C@H](C)NC(=O)[C@H](NC(=O)[C@H](C)NC(=O)CNC(=O)[C@@H](NC=O)C(C)C)C(C)C)C(=O)N[C@H](C(=O)N[C@@H](C(=O)N[C@@H](Cc1c[nH]c2ccccc12)C(=O)N[C@@H](C(=O)N[C@@H](Cc1c[nH]c2ccccc12)C(=O)N[C@@H](C(=O)N[C@@H](Cc1c[nH]c2ccccc12)C(=O)N[C@H](CC(C)C)C(=O)N[C@@H](Cc1c[nH]c2ccccc12)C(=O)NCCO)C(C)C)C(C)C)C(C)C)C(C)C [compound 9192] (For-VGA[dV]A[dL]V[dV]W[dV]W[dV]W[dL]W-NHCH2CH2OH)	100.0
